Molecular target: Delta-type opioid receptor (Rattus norvegicus)
Assay: Binding affinity was determined on delta [3H]DPDPE site in rat brain synaptosomes by radioreceptor assay
Square brackets hold non-standard residues; d marks the D form. Peptide text beside a SMILES is read from it. Tic = O=C(O)[C@@H]1Cc2ccccc2CN1
Provide the reported pKi of each item.
The read-out pKi is expressed as -log10 of concentration in moles per litre.

Task item: Query (compound): CC(C)[C@H](NC(=O)[C@H](CC(=O)O)NC(=O)[C@@H]1Cc2ccccc2CN1C(=O)[C@@H](C)NC(=O)[C@@H](N)Cc1ccc(O)cc1)C(=O)N[C@H](C(=O)NCC(N)=O)C(C)C (H-Y[dA][Tic]DVVG-NH2) ; field requested: pKi
Reply: 7.04

Task item: Query (compound): CC(C)[C@H](NC(=O)[C@H](CC(=O)O)NC(=O)/C(=C\c1ccccc1)NC(=O)[C@@H](C)NC(=O)[C@@H](N)Cc1ccc(O)cc1)C(=O)N[C@H](C(=O)NCC(N)=O)C(C)C ; field requested: pKi
Reply: 8.37

Task item: Query (compound): CC(C)[C@H](NC(=O)[C@H](CC(=O)O)NC(=O)[C@H](Cc1ccc(O)cc1)NC(=O)[C@@H](C)NC(=O)[C@@H](N)Cc1ccc(O)cc1)C(=O)N[C@H](C(=O)NCC(N)=O)C(C)C ; field requested: pKi
Reply: 7.47

---

Biological target: Delta-type opioid receptor (Rattus norvegicus, UniProt P33533)
Sequence (P33533 whole entry): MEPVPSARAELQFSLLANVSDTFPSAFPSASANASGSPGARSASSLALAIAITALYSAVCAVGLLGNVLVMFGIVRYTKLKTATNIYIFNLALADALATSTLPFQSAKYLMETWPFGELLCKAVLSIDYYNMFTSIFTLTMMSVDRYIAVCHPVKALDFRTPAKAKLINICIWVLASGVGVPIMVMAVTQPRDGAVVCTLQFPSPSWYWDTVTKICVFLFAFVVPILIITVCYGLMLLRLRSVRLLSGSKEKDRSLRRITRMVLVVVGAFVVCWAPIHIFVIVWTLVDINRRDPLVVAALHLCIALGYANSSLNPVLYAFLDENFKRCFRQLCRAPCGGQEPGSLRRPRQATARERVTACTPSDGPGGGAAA
Assay: Binding affinity was determined on delta [3H]DPDPE site in rat brain synaptosomes by radioreceptor assay
METRIC: Ki (pM)
Respond numerically; units are pM and should not be typed.

Task item: Query (molecule): CC(C)[C@H](NC(=O)[C@H](CC(=O)O)NC(=O)C1(NC(=O)[C@@H](C)NC(=O)[C@@H](N)Cc2ccc(O)cc2)CCc2ccccc2C1)C(=O)N[C@H](C(=O)NCC(N)=O)C(C)C (single isomer, unassigned; 15) ; field requested: Ki
Reply: 70

Task item: Query (molecule): CC(C)[C@H](NC(=O)[C@H](CC(=O)O)NC(=O)[C@H](Cc1cccc2ccccc12)NC(=O)[C@@H](C)NC(=O)[C@@H](N)Cc1ccc(O)cc1)C(=O)N[C@H](C(=O)NCC(N)=O)C(C)C ; field requested: Ki
Reply: 610

Task item: Query (molecule): CC(C)[C@H](NC(=O)[C@H](CC(=O)O)NC(=O)C1(NC(=O)[C@@H](C)NC(=O)[C@@H](N)Cc2ccc(O)cc2)CCc2ccccc2C1)C(=O)N[C@H](C(=O)NCC(N)=O)C(C)C (single isomer, unassigned; 15a) ; field requested: Ki
Reply: 120

---

Provide the reported Ki of each item.
Biological target: UniProt P33535
Assay: Binding affinity was determined on mu [3H]DAGO site in rat brain synaptosomes by radioreceptor assay
Square brackets hold non-standard residues; d marks the D form. Peptide text beside a SMILES is read from it. Tic = O=C(O)[C@@H]1Cc2ccccc2CN1
Respond numerically; units are nM and should not be typed.

Task item: Query (molecule): CC(C)[C@H](NC(=O)[C@H](CC(=O)O)NC(=O)[C@@H]1Cc2ccccc2CN1C(=O)[C@@H](C)NC(=O)[C@@H](N)Cc1ccc(O)cc1)C(=O)N[C@H](C(=O)NCC(N)=O)C(C)C (H-Y[dA][Tic]DVVG-NH2) ; field requested: Ki
Reply: 7810

Task item: Query (molecule): CC(C)[C@H](NC(=O)[C@H](CC(=O)O)NC(=O)[C@H](CCc1ccccc1)NC(=O)[C@@H](C)NC(=O)[C@@H](N)Cc1ccc(O)cc1)C(=O)N[C@H](C(=O)NCC(N)=O)C(C)C ; field requested: Ki
Reply: 326

Task item: Query (molecule): CC(C)[C@H](NC(=O)[C@H](CC(=O)O)NC(=O)C1(NC(=O)[C@@H](C)NC(=O)[C@@H](N)Cc2ccc(O)cc2)CCc2ccccc2C1)C(=O)N[C@H](C(=O)NCC(N)=O)C(C)C (single isomer, unassigned; 15a) ; field requested: Ki
Reply: 82.3

---

Target: Mu-type opioid receptor (Rattus norvegicus)
Sequence (P33535 whole entry): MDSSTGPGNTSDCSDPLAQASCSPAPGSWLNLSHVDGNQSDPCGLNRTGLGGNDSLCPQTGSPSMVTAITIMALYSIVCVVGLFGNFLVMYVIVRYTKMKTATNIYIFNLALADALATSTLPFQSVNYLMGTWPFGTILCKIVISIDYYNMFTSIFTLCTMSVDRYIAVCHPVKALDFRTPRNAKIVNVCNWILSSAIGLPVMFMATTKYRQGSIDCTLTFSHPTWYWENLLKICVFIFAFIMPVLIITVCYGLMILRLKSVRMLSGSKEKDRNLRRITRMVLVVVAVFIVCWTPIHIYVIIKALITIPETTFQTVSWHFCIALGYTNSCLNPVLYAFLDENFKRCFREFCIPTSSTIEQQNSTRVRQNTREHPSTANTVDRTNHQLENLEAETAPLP
Test: Binding affinity was determined on mu [3H]DAGO site in rat brain synaptosomes by radioreceptor assay
Square brackets hold non-standard residues; d marks the D form. Peptide text beside a SMILES is read from it. Aic = NC1(C(=O)O)Cc2ccccc2C1
METRIC: pKi
The read-out pKi is expressed as -log10 of concentration in moles per litre.

Task item: Query (molecule): CC(C)[C@H](NC(=O)[C@H](CC(=O)O)NC(=O)[C@](C)(Cc1ccccc1)NC(=O)[C@@H](C)NC(=O)[C@@H](N)Cc1ccc(O)cc1)C(=O)N[C@H](C(=O)NCC(N)=O)C(C)C (single isomer, unassigned; 6) ; field requested: pKi
Reply: 5.87

Task item: Query (molecule): CC(C)[C@H](NC(=O)[C@H](CC(=O)O)NC(=O)[C@H](Cc1ccc2ccccc2c1)NC(=O)[C@@H](C)NC(=O)[C@@H](N)Cc1ccc(O)cc1)C(=O)N[C@H](C(=O)NCC(N)=O)C(C)C ; field requested: pKi
Reply: 6.11

Task item: Query (molecule): CC(C)[C@H](NC(=O)[C@H](CC(=O)O)NC(=O)C1(NC(=O)[C@@H](C)NC(=O)[C@@H](N)Cc2ccc(O)cc2)Cc2ccccc2C1)C(=O)N[C@H](C(=O)NCC(N)=O)C(C)C (H-Y[dA][Aic]DVVG-NH2) ; field requested: pKi
Reply: 7.25

---

Provide the reported Ki of each item.
Target: Delta-type opioid receptor (Rattus norvegicus)
Assay: Binding affinity was determined on delta [3H]DPDPE site in rat brain synaptosomes by radioreceptor assay
Respond numerically; units are nM and should not be typed.

Task item: Query (molecule): CC(C)[C@H](NC(=O)[C@H](CC(=O)O)NC(=O)[C@](C)(Cc1ccccc1)NC(=O)[C@@H](C)NC(=O)[C@@H](N)Cc1ccc(O)cc1)C(=O)N[C@H](C(=O)NCC(N)=O)C(C)C (single isomer, unassigned; 6) ; field requested: Ki
Reply: 69.1

Task item: Query (molecule): CC(C)[C@H](NC(=O)[C@H](CC(=O)O)NC(=O)[C@H](Cc1ccc2ccccc2c1)NC(=O)[C@@H](C)NC(=O)[C@@H](N)Cc1ccc(O)cc1)C(=O)N[C@H](C(=O)NCC(N)=O)C(C)C ; field requested: Ki
Reply: 10.7

Task item: Query (molecule): CC(C)[C@H](NC(=O)[C@H](CC(=O)O)NC(=O)[C@H](CCc1ccccc1)NC(=O)[C@@H](C)NC(=O)[C@@H](N)Cc1ccc(O)cc1)C(=O)N[C@H](C(=O)NCC(N)=O)C(C)C ; field requested: Ki
Reply: 4.84

---

Target: Delta-type opioid receptor (Rattus norvegicus, UniProt P33533)
Assay: Binding affinity was determined on delta [3H]DPDPE site in rat brain synaptosomes by radioreceptor assay
Square brackets hold non-standard residues; d marks the D form. Peptide text beside a SMILES is read from it. Aic = NC1(C(=O)O)Cc2ccccc2C1
METRIC: Ki (nM)
Respond numerically; units are nM and should not be typed.

Task item: Find the measured Ki: item CC(C)[C@H](NC(=O)[C@H](CC(=O)O)NC(=O)C1(NC(=O)[C@@H](C)NC(=O)[C@@H](N)Cc2ccc(O)cc2)Cc2ccccc2C1)C(=O)N[C@H](C(=O)NCC(N)=O)C(C)C (H-Y[dA][Aic]DVVG-NH2) , target or system Delta-type opioid receptor (Rattus norvegicus, UniProt P33533).
Reply: 0.2

Task item: Find the measured Ki: item CC(C)[C@H](NC(=O)[C@H](CC(=O)O)NC(=O)[C@H](Cc1ccccc1)N(C)C(=O)[C@@H](C)NC(=O)[C@@H](N)Cc1ccc(O)cc1)C(=O)N[C@H](C(=O)NCC(N)=O)C(C)C , target or system Delta-type opioid receptor (Rattus norvegicus, UniProt P33533).
Reply: 284

Task item: Find the measured Ki: item CC(C)[C@H](NC(=O)[C@H](CC(=O)O)NC(=O)[C@](C)(Cc1ccccc1)NC(=O)[C@@H](C)NC(=O)[C@@H](N)Cc1ccc(O)cc1)C(=O)N[C@H](C(=O)NCC(N)=O)C(C)C (single isomer, unassigned; 6a) , target or system Delta-type opioid receptor (Rattus norvegicus, UniProt P33533).
Reply: 48.6

---

Provide the reported log10 Ki of each item.
Molecular target: Mu-type opioid receptor (Rattus norvegicus)
Experiment: Binding affinity was determined on mu [3H]DAGO site in rat brain synaptosomes by radioreceptor assay
Would you kindly interpret these values as log10 of Ki expressed in nM?

Task item: Query (compound): CC(C)[C@H](NC(=O)[C@H](CC(=O)O)NC(=O)[C@H](Cc1cnc[nH]1)NC(=O)[C@@H](C)NC(=O)[C@@H](N)Cc1ccc(O)cc1)C(=O)N[C@H](C(=O)NCC(N)=O)C(C)C ; field requested: log10 Ki
Reply: 3.57

Task item: Query (compound): COc1ccc(C[C@H](NC(=O)[C@@H](C)NC(=O)[C@@H](N)Cc2ccc(O)cc2)C(=O)N[C@@H](CC(=O)O)C(=O)N[C@H](C(=O)N[C@H](C(=O)NCC(N)=O)C(C)C)C(C)C)cc1 ; field requested: log10 Ki
Reply: 2.72

Task item: Query (compound): CC(C)[C@H](NC(=O)[C@H](CC(=O)O)NC(=O)[C@H](Cc1ccccc1)N(C)C(=O)[C@@H](C)NC(=O)[C@@H](N)Cc1ccc(O)cc1)C(=O)N[C@H](C(=O)NCC(N)=O)C(C)C ; field requested: log10 Ki
Reply: 4.28

Task item: Query (compound): CC(C)[C@H](NC(=O)[C@H](CC(=O)O)NC(=O)[C@](C)(Cc1ccccc1)NC(=O)[C@@H](C)NC(=O)[C@@H](N)Cc1ccc(O)cc1)C(=O)N[C@H](C(=O)NCC(N)=O)C(C)C (single isomer, unassigned; 6a) ; field requested: log10 Ki
Reply: 3.53

Task item: Query (compound): CC(C)[C@H](NC(=O)[C@H](CC(=O)O)NC(=O)/C(=C\c1ccccc1)NC(=O)[C@@H](C)NC(=O)[C@@H](N)Cc1ccc(O)cc1)C(=O)N[C@H](C(=O)NCC(N)=O)C(C)C ; field requested: log10 Ki
Reply: 2.06

Task item: Query (compound): CC(C)[C@H](NC(=O)[C@H](CC(=O)O)NC(=O)[C@H](Cc1cccc2ccccc12)NC(=O)[C@@H](C)NC(=O)[C@@H](N)Cc1ccc(O)cc1)C(=O)N[C@H](C(=O)NCC(N)=O)C(C)C ; field requested: log10 Ki
Reply: 2.45
